Listing of entries alongside the reported TGI.
Test system: MALME-3M melanoma
Test: NCI tumour cell line growth inhibition, 48 h
Express your answer in µM, writing the number without its unit.

TGI measured on CCOC(=O)CCc1c(C)c2c(OC(C)=O)cc(OC(C)=O)cc2oc1=O = 55.5

# TGI of CCOC(=O)CC1c2ccc(O)cc2OC(=O)C1c1ccc([N+](=O)[O-])cc1 (stereo unspecified) = 70.3

Record summary for CC(C)CC1[C@@H](OCc2ccccc2)COS(=O)N1Cc1ccccc1 (stereo partly specified) : reported TGI = 72.9

TGI in this record for O=C(/C=C/c1ccccc1)/C=C/c1ccccc1 : 57.7

Quick note, TGI for N#CC1(C2SCCS2=O)C2=C(C(=O)c3ccccc3C2=O)N2CCCC21 (stereo unspecified) landed at 1.27

Looking up Cc1ccc(S(=O)(=O)C2=Cc3ccc(C(F)(F)F)cc3C2(O)c2cccc(C(F)(F)F)c2)cc1 (stereo unspecified) , I see its TGI listed as 3.48

Reported TGI of CCOC(=O)C1(C(=O)OCC)CN(CC)CN(c2ccccc2)C1 : 69.2

Kindly note the recorded TGI for O=C1/C(=C\c2ccc([N+](=O)[O-])o2)SC2N=C(COc3ccc(Cl)cc3)NN12 (stereo unspecified) , which is 6.07

Entry CCCCCC(C[N+]1(C)CCOCC1)C(=O)/C=C/c1ccccc1 (stereo unspecified) — recorded TGI = 32

So, CC(=O)c1sc2c(c1OC(=O)c1cccs1)c(=O)n(-c1ccccc1)c(=S)n2-c1ccccc1 ? Its TGI was 6.7

The compound listed as CC(C)(C)C(=O)/C=C/c1ccc(Oc2ccccc2)cc1 shows TGI equal to 44.6

For this compound ( CC1=C(Br)C(Br)=C(C)S1=O ), measured TGI is 39.3

---

Test system: OVCAR-8 ovarian
Test: NCI tumour cell line growth inhibition, 48 h
ASSAY_ENDPOINT: TGI

COMPOUND: CN=NN(C)C(=O)NC
TGI: > 100 µM

// recorded TGI for CCOC(=O)[C@H](CCCNC(=O)OC(C)(C)C)NCc1ccc(OC)c(OC)c1 : > 100 µM

Value of measured TGI for the entry CCOC(=O)CC1c2ccc(O)cc2OC(=O)C1c1ccc([N+](=O)[O-])cc1 (stereo not given) : 75.7 µM

Sure, the documented TGI for CCC1OC2C(CC=C(C)C)=C3OC(C)(O)C(C)(CC)C(OC(=O)c4ccccc4)C3=C3OC(=O)C=C1C32 (stereo not given) is > 100 µM

Per the record, O=c1[nH]cc(COCC(F)(F)C(F)(F)C(F)(F)C(F)F)c(=O)[nH]1 has TGI of > 100 µM

---

System: OVCAR-5 ovarian
Test: NCI tumour cell line growth inhibition, 48 h
ASSAY_ENDPOINT: TGI (µM)
All answers are understood in µM, so give the number only.

RECORD_SMILES: O=C(CN(C1CCCCC1)C1CCCCC1)Nc1ccc(S(=O)(=O)c2ccc(NC(=O)CN(C3CCCCC3)C3CCCCC3)cc2)cc1
UNIT_STRING: µM
TGI: 2.52

Just so you know, measured TGI for COc1ccccc1NC(=O)C1=C(C)NC(C)=C(C(=O)Nc2ccccc2OC)C1c1ccc([N+](=O)[O-])cc1 came out at 90.8

---

System: HOP-92 NSCLC
Experiment: NCI tumour cell line growth inhibition, 48 h
ASSAY_ENDPOINT: TGI (µM)
Your answer should be a plain number; it is taken to be in µM.

COMPOUND: N#CC1(C2SCCS2=O)C2=C(C(=O)c3ccccc3C2=O)N2CCCC21 (centres undefined)
UNIT_STRING: µM
TGI: 11.9

Record COc1ccc(CNc2c3ccccc3nc3ccccc23)cc1OC / HOP-92 NSCLC, TGI recorded as 7.83

Let me check: O=C1CSC(Cc2nc3ccccc3[nH]2)=N1 , system HOP-92 NSCLC, measured TGI is 57.8

For the compound C=CCNC1=C2C[C@@H](C)C[C@@H](OC)[C@@H](OC(=O)CCCN)[C@H](C)/C=C(\C)[C@@H](OC(N)=O)[C@H](OC)/C=C\C=C(/C)C(=O)NC(=CC1=O)C2=O , the measured TGI on HOP-92 NSCLC was 29.3

Readout TGI for NS(=O)(=O)c1ccc(-n2c(-c3cccs3)nc3ccc(I)cc3c2=O)cc1 , test system HOP-92 NSCLC, was 54.1

The compound CCN(CC)CCNCC(=O)Oc1ccc(/C=C/C(=O)CC(=O)/C=C/c2ccc(OC(=O)CNCCN(CC)CC)c(OC)c2)cc1OC , tested on HOP-92 NSCLC, showed TGI of 33.1
